These data points were gathered from ChEMBL document CHEMBL1145415.

MIC reference
# Test system: Enterococcus faecalis
# procedureDetails: Antibacterial activity against Enterococcus faecalis 03-4 after 18 to 24 hrs
# Format: functional
Please give a number only; it is taken to be in µg/mL.

Examples from the recorded data:
compound | MIC / µg/mL
CC(=O)NC[C@H]1CN(c2ccc(N3CCOCC3)c(F)c2)C(=O)O1 | 0.125
CCCO/N=C1\CCN(c2nc3c(cc2F)c(=O)c(C(=O)O)cn3C2CC2)CC1NC (centres undefined) | 0.015
CCCO/N=C1\CN(c2nc3c(cc2F)c(=O)c(C(=O)O)cn3C2CC2)CCC1NC (centres undefined) | 0.06
CNC1CN(c2nc3c(cc2F)c(=O)c(C(=O)O)cn3C2CC2)CC/C1=N\OCc1ccccc1 (centres undefined) | 0.125
CCO/N=C1\CCN(c2nc3c(cc2F)c(=O)c(C(=O)O)cn3C2CC2)CC1N(C)C (centres undefined) | 0.004

Query string: Could you share what MIC was measured for CO/N=C1\CN(c2nc3c(cc2F)c(=O)c(C(=O)O)cn3C2CC2)CC1CN (centres undefined) , tested on Enterococcus faecalis?
Result string: 0.004

Query string: Notebook: pull reported MIC for Enterococcus faecalis, entry CN(C)C1CN(c2nc3c(cc2F)c(=O)c(C(=O)O)cn3C2CC2)CC/C1=N\OCc1ccccc1 (centres undefined)
Result string: 0.06

* * *

# Tested on: Enterococcus faecalis
# procedureDetails: Antibacterial activity against Enterococcus faecalis 03-4 after 18 to 24 hrs
# Format: functional
In this section, each of the molecules is paired with its reported MIC.

The examples below pair each entry with its known result.
molecule | MIC
CO/N=C1\CN(c2nc3c(cc2F)c(=O)c(C(=O)O)cn3C2CC2)CCC1NC1CC1 (stereo not given) | 4 ng/mL
CCO/N=C1\CCN(c2nc3c(cc2F)c(=O)c(C(=O)O)cn3C2CC2)CC1NC (stereo not given) | < 1 ng/mL
CCO/N=C1\CN(c2nc3c(cc2F)c(=O)c(C(=O)O)cn3C2CC2)CCC1NC (stereo not given) | < 1 ng/mL
CCCO/N=C1\CCN(c2nc3c(cc2F)c(=O)c(C(=O)O)cn3C2CC2)CC1N(C)C (stereo not given) | 250 ng/mL

Then this molecule:
Query string: // lookup MIC for CNC1CCN(c2nc3c(cc2F)c(=O)c(C(=O)O)cn3C2CC2)C/C1=N\OCc1ccccc1 (stereo not given)
Result string: < 1 ng/mL

* * *

# Tested on: Klebsiella pneumoniae
# procedureDetails: Antibacterial activity against Klebsiella pneumoniae 05-4 after 18 to 24 hrs
# Format: functional
reportedProperty: MIC (µg/mL)
Supply the numeric figure in µg/mL, leaving out any unit text.

These recorded examples may help you get a feel for the data.
compound | reportedProperty | val
CO/N=C1\CCN(c2nc3c(cc2F)c(=O)c(C(=O)O)cn3C2CC2)CC1N(C)C (stereo not drawn) | MIC | 1
CCCO/N=C1\CCN(c2nc3c(cc2F)c(=O)c(C(=O)O)cn3C2CC2)CC1NC (stereo not drawn) | MIC | 8
CO/N=C1\CCN(c2nc3c(cc2F)c(=O)c(C(=O)O)cn3C2CC2)CC1N (stereo not drawn) | MIC | 2
CO/N=C1\CN(c2nc3c(cc2F)c(=O)c(C(=O)O)cn3C2CC2)CC1CN (stereo not drawn) | MIC | 0.125
CNC1CCN(c2nc3c(cc2F)c(=O)c(C(=O)O)cn3C2CC2)C/C1=N\OC (stereo not drawn) | MIC | 1

Query string: Need MIC of CCCO/N=C1\CN(c2nc3c(cc2F)c(=O)c(C(=O)O)cn3C2CC2)CCC1NC (stereo not drawn) , thanks.
Result string: 4

Query string: Endpoint output: MIC of CO/N=C1\CN(c2nc3c(cc2F)c(=O)c(C(=O)O)cn3C2CC2)CCC1NC1CC1 (stereo not drawn) . Value?
Result string: 16

Query string: Which MIC value is on record for CO/N=C1\CN(c2nc3c(cc2F)c(=O)c(C(=O)O)cn3C2CC2)CCC1N (stereo not drawn) ?
Result string: 1
